# assayed_target: IGFR-1 (Homo sapiens)
# Construct: Kinases are expressed as either kinase domains or full length constructs; made in house
# Sequence (P08069 31-1367): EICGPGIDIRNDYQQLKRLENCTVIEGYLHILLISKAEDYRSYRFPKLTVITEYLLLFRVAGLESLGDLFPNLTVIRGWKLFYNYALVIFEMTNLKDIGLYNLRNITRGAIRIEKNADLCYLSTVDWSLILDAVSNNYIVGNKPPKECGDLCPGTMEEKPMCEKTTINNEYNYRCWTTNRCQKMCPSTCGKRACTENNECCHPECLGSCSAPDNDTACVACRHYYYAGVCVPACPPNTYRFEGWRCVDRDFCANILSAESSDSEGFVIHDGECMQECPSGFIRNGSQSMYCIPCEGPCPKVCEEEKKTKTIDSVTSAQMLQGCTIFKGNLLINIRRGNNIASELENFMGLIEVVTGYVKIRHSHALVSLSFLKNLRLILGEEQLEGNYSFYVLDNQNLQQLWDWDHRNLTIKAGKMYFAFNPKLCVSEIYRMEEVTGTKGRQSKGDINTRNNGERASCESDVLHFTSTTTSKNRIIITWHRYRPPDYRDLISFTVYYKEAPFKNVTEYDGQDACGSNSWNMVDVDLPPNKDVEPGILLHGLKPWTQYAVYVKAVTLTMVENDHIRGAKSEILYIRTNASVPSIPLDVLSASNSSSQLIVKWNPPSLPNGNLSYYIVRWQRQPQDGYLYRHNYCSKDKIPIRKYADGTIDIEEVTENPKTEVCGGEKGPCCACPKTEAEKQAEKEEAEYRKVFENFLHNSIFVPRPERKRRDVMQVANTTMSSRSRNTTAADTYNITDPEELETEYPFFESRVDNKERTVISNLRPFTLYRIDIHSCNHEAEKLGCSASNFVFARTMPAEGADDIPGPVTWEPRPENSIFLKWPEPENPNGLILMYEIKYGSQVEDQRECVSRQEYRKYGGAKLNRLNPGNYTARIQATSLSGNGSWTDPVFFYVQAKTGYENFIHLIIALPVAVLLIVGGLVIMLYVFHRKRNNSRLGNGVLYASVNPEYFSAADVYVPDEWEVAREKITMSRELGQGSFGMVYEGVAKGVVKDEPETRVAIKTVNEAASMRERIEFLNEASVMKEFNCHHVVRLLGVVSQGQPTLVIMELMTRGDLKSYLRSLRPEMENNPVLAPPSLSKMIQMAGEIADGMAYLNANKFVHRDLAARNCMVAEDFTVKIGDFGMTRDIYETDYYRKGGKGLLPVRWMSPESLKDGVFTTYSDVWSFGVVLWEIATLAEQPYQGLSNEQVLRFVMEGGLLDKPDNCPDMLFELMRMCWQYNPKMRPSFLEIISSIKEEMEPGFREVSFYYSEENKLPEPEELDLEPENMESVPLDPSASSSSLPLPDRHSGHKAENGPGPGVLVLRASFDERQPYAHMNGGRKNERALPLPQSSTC
# experimental_details: Kinase inhibition assay (33P transfer), IGFR-1
# Type: biochemical
# measurement_parameters: Table 2, kinase inhibition class

| compound | assayed_target | IC50 |
| --- | --- | --- |
| COc1cc(Nc2ncnc(Nc3cccc(O)c3)n2)cc(OC)c1OC | IGFR-1 (Homo sapiens) | 1.08 to 6.5 µM |
| COc1cc(Nc2ncnc(N3CCN(C(=O)OC(C)(C)C)CC3)n2)cc(OC)c1OC | IGFR-1 (Homo sapiens) | > 10.1 µM |
| COc1cc2ccn(-c3ncnc(Nc4cc(OC)c(OC)c(OC)c4)n3)c2cc1OC | IGFR-1 (Homo sapiens) | > 10.3 µM |
| COc1cc(Nc2ncnc(N(Cc3ccccc3)c3nc4ccccc4[nH]3)n2)cc(OC)c1OC | IGFR-1 (Homo sapiens) | > 9.31 µM |
| Oc1cccc(Nc2ncnc(Nc3ccc(OCc4ccccc4)cc3)n2)c1 | IGFR-1 (Homo sapiens) | 9.08 to 11.7 µM |
| COc1cc(Nc2ncnc(-c3ccc(F)cc3)n2)cc(OC)c1OC | IGFR-1 (Homo sapiens) | > 12.6 µM |
| COc1cc(Nc2ncnc(NC3CC3c3ccccc3)n2)cc(OC)c1OC (stereo not drawn) | IGFR-1 (Homo sapiens) | 1.02 to 6.1 µM |
| COc1cc(Nc2ncnc(Nc3ccc(C(N)=O)cc3)n2)cc(OC)c1OC | IGFR-1 (Homo sapiens) | < 1.01 µM |
| C#Cc1cccc(Nc2ncnc(Nc3ccc(OC)c(OC)c3)n2)c1 | IGFR-1 (Homo sapiens) | 1.15 to 6.91 µM |
| COc1cc(Nc2ncnc(N(C/C=C/c3ccccc3)c3ccc(Cl)cc3)n2)cc(OC)c1OC | IGFR-1 (Homo sapiens) | 6.94 to 8.93 µM |
| COc1cc(Nc2ncnc(Nc3ccccn3)n2)cc(OC)c1OC | IGFR-1 (Homo sapiens) | > 12.7 µM |
| COc1cc(Nc2ncnc(-n3c(Nc4ccc5[nH]ccc5c4)nc4ccccc43)n2)cc(OC)c1OC | IGFR-1 (Homo sapiens) | 0.787 to 4.72 µM |
| COc1ccc(Nc2ncnc(Nc3ccc(OC)c(OC)c3)n2)cc1OC | IGFR-1 (Homo sapiens) | > 11.7 µM |
| COc1cc(Nc2ncnc(-n3cc(OC(C)=O)c4ccccc43)n2)cc(OC)c1OC | IGFR-1 (Homo sapiens) | > 10.3 µM |
| COc1cccc(-c2ncnc(Nc3cc(OC)c(OC)c(OC)c3)n2)c1 | IGFR-1 (Homo sapiens) | > 12.2 µM |
| COc1ccc(Nc2ncnc(Nc3cc(-c4ccco4)n[nH]3)n2)cc1OC | IGFR-1 (Homo sapiens) | < 1.05 µM |
| COc1cc(Nc2ncnc(-c3ccc(C)cc3)n2)cc(OC)c1OC | IGFR-1 (Homo sapiens) | < 1.14 µM |
| COc1cc(Nc2ncnc(-n3c(Nc4ccccc4)nc4ccccc43)n2)cc(OC)c1OC | IGFR-1 (Homo sapiens) | > 9.58 µM |
